Test system: human non-small cell lung cancer cells (A549)
test_description: MTT antiproliferative assay, A549
Format: cell-based
conditions_used: A549, 10 μM, read-out: Inhibition rate, A549
Grouping key: inhibition at 10 µM. Bins: group 1: < 30%; group 2: ≥ 30% and < 90%; group 3: ≥ 90%

Could you place Nn1c(SCC(=O)Nc2cc(-c3c[nH]c4ccccc34)n[nH]2)nnc1-c1ccccc1 [Compound 11k] in its proper category? Many thanks.
group 1

Could you place Nn1c(SCC(=O)Nc2cc(-c3c[nH]c4ccccc34)n[nH]2)nnc1-c1ccccc1F [Compound 11g] in its proper category? Many thanks.
group 2

Could you place O=C(CSc1nnc(-c2ccc(Cl)cc2)s1)Nc1cc(-c2c[nH]c3ccccc23)n[nH]1 [Compound 10f] in its proper category? Many thanks.
group 2

Could you place Nn1c(SCC(=O)Nc2cc(-c3c[nH]c4ccccc34)n[nH]2)nnc1-c1cc(Cl)cc(Cl)c1 [Compound 11a] in its proper category? Many thanks.
group 2

Could you place Nn1c(SCC(=O)Nc2cc(-c3c[nH]c4ccccc34)n[nH]2)nnc1-c1ccc[nH]1 [Compound 11r] in its proper category? Many thanks.
group 3

Could you place Nn1c(SCC(=O)Nc2cc(-c3c[nH]c4ccccc34)n[nH]2)nnc1-c1ccc(Cl)cc1 [Compound 11f] in its proper category? Many thanks.
group 2

Could you place COc1cc(-c2nnc(SCC(=O)Nc3cc(-c4c[nH]c5ccccc45)n[nH]3)s2)cc(OC)c1OC [Compound 10b] in its proper category? Many thanks.
group 3

Could you place Nn1c(SCC(=O)Nc2cc(-c3c[nH]c4ccccc34)n[nH]2)nnc1-c1cccnc1 [Compound 11h] in its proper category? Many thanks.
group 3

Next:
Could you place Nn1c(SCC(=O)Nc2cc(-c3c[nH]c4ccccc34)n[nH]2)nnc1-c1ccccc1Br [Compound 11c] in its proper category? Many thanks.
group 1

Could you place Nc1ccc(-c2nnc(SCC(=O)Nc3cc(-c4c[nH]c5ccccc45)n[nH]3)n2N)cc1 [Compound 11l] in its proper category? Many thanks.
group 3

Could you place O=C(CSc1nnc(-c2cccnc2)s1)Nc1cc(-c2c[nH]c3ccccc23)n[nH]1 [Compound 10h] in its proper category? Many thanks.
group 2

* * *

Tested on: normal cell line (HEK293)
test_description: MTT cytotoxicity, normal cell line HEK293
Assay type: cell-based, human
conditions_used: Homo sapiens, HEK293; 10 μM; read-out: Inhibition rate, HEK293
Binary classification by inhibition at 10 µM, with 60% as an inclusive lower bound for y; all other cases are n.

Answered cases to consult:
Answer whether inhibition at 10 µM of Nn1c(SCC(=O)Nc2cc(-c3c[nH]c4ccccc34)n[nH]2)nnc1-c1ccccc1Cl [Compound 11j] is greater than or equal to 60%.
n

Answer whether inhibition at 10 µM of COc1cc(-c2nnc(SCC(=O)Nc3cc(-c4c[nH]c5ccccc45)n[nH]3)s2)cc(OC)c1OC [Compound 10b] is greater than or equal to 60%.
y

Answer whether inhibition at 10 µM of O=C(CSc1nnc(Cc2ccc(Cl)cc2)s1)Nc1cc(-c2c[nH]c3ccccc23)n[nH]1 [Compound 10d] is greater than or equal to 60%.
y

Answer whether inhibition at 10 µM of Nn1c(SCC(=O)Nc2cc(-c3c[nH]c4ccccc34)n[nH]2)nnc1-c1ccc(Cl)cc1 [Compound 11f] is greater than or equal to 60%.
n

Answer whether inhibition at 10 µM of Nn1c(SCC(=O)Nc2cc(-c3c[nH]c4ccccc34)n[nH]2)nnc1-c1ccc(F)cc1 [Compound 11p] is greater than or equal to 60%.
n

Proceed to the following item.
Answer whether inhibition at 10 µM of Nn1c(SCC(=O)Nc2cc(-c3c[nH]c4ccccc34)n[nH]2)nnc1-c1ccc[nH]1 [Compound 11r] is greater than or equal to 60%.
y

* * *

test_description: MTT cytotoxicity, normal cell line HEK293
Type: cell-based, human
conditions_used: human, HEK293 cells (normal cell line); MTT assay, 48 h; normal cell line; CC50; read-out: In vitro cytotoxicity IC50, HEK293
measured_property: IC50 at 48 h (nM)
Answers are plain numbers, in nM.

Solved entries:
Recorded IC50 at 48 h of COc1ccc(-c2nnc(SCC(=O)Nc3cc(-c4c[nH]c5ccccc45)n[nH]3)s2)cc1 [Compound 10e] , please.
890

Recorded IC50 at 48 h of O=C(CSc1nnc(Cc2ccc(Cl)cc2)s1)Nc1cc(-c2c[nH]c3ccccc23)n[nH]1 [Compound 10d] , please.
740

Answer for every listed entry: what is its IC50 at 48 h? The entries follow.
1. COc1ccc(-c2nnc(SCC(=O)Nc3cc(-c4c[nH]c5ccccc45)n[nH]3)n2N)cc1 [Compound 11e]
2. O=C(CSc1nnc(-c2ccc(Cl)cc2)s1)Nc1cc(-c2c[nH]c3ccccc23)n[nH]1 [Compound 10f]

1. 4940
2. 2560

* * *

Test system: human chronic myeloid leukaemia cells (K562)
test_description: MTT antiproliferative assay, K562
Assay type: cell-based
conditions_used: K562, as stated in abstract and conclusion, read-out: IC50 against K562
measured_property: IC50 (nM)
Give bare numbers, in nM.

Recorded IC50 of COc1cc(-c2nnc(SCC(=O)Nc3cc(-c4c[nH]c5ccccc45)n[nH]3)s2)cc(OC)c1OC [Compound 10b] , please.
10

* * *

test_description: MTT cytotoxicity, normal cell line HEK293
Type: cell-based, human
conditions_used: human, HEK293 cells (normal cell line); MTT assay, 48 h; normal cell line; CC50; read-out: In vitro cytotoxicity IC50, HEK293
Assignment: determine reported log10(IC50 at 48 h) for the given compounds.
A difference of one corresponds to tenfold IC50 at 48 h; all values are log10 with IC50 at 48 h in µM.

Solved entries:
Recorded log10(IC50 at 48 h) of Nn1c(SCC(=O)Nc2cc(-c3c[nH]c4ccccc34)n[nH]2)nnc1-c1ccccc1F [Compound 11g] , please.
0.70

Recorded log10(IC50 at 48 h) of Nn1c(SCC(=O)Nc2cc(-c3c[nH]c4ccccc34)n[nH]2)nnc1-c1ccccc1O [Compound 11q] , please.
0.42

Recorded log10(IC50 at 48 h) of Nn1c(SCC(=O)Nc2cc(-c3c[nH]c4ccccc34)n[nH]2)nnc1-c1ccc(F)cc1 [Compound 11p] , please.
1.46

Recorded log10(IC50 at 48 h) of COc1cc(-c2nnc(SCC(=O)Nc3cc(-c4c[nH]c5ccccc45)n[nH]3)n2N)cc(OC)c1OC [Compound 11b] , please.
1.31

Recorded log10(IC50 at 48 h) of O=C(CSc1nnc(-c2ccccc2F)s1)Nc1cc(-c2c[nH]c3ccccc23)n[nH]1 [Compound 10g] , please.
1.00

Answer for every listed entry: what is its log10(IC50 at 48 h)? The entries follow.
1. Nn1c(SCC(=O)Nc2cc(-c3c[nH]c4ccccc34)n[nH]2)nnc1-c1c[nH]c2ccccc12 [Compound 11n]
2. O=C(CSc1nnc(-c2ccccc2Br)s1)Nc1cc(-c2c[nH]c3ccccc23)n[nH]1 [Compound 10c]
3. Nc1ccc(-c2nnc(SCC(=O)Nc3cc(-c4c[nH]c5ccccc45)n[nH]3)n2N)cc1 [Compound 11l]
4. Nn1c(SCC(=O)Nc2cc(-c3c[nH]c4ccccc34)n[nH]2)nnc1-c1ccc(Cl)cc1 [Compound 11f]

1. 0.70
2. 1.80
3. 0.14
4. 1.26

Answer for every listed entry: what is its log10(IC50 at 48 h)? The entries follow.
1. Nn1c(SCC(=O)Nc2cc(-c3c[nH]c4ccccc34)n[nH]2)nnc1-c1ccccc1 [Compound 11k]
2. Nn1c(SCC(=O)Nc2cc(-c3c[nH]c4ccccc34)n[nH]2)nnc1-c1cc(Cl)cc(Cl)c1 [Compound 11a]
3. O=c1[nH]cc(F)c(=O)[nH]1 [5-Fluorouracil, reference compound]
4. O=C(CSc1nnc(-c2ccccn2)s1)Nc1cc(-c2c[nH]c3ccccc23)n[nH]1 [Compound 10i]
5. COc1cc(-c2nnc(SCC(=O)Nc3cc(-c4c[nH]c5ccccc45)n[nH]3)s2)cc(OC)c1OC [Compound 10b]
6. O=C(CSc1nnc(-c2cccnc2)s1)Nc1cc(-c2c[nH]c3ccccc23)n[nH]1 [Compound 10h]
7. Nn1c(SCC(=O)Nc2cc(-c3c[nH]c4ccccc34)n[nH]2)nnc1-c1ccc(Br)cc1 [Compound 11m]
8. Nn1c(SCC(=O)Nc2cc(-c3c[nH]c4ccccc34)n[nH]2)nnc1-c1ccccc1Cl [Compound 11j]

1: 1.37; 2: 1.23; 3: 0.56; 4: 1.42; 5: 0.05; 6: 1.34; 7: 0.76; 8: 1.80

Answer for every listed entry: what is its log10(IC50 at 48 h)? The entries follow.
1. Nn1c(Cc2ccc(Cl)cc2)nnc1SCC(=O)Nc1cc(-c2c[nH]c3ccccc23)n[nH]1 [Compound 11d]
2. Nn1c(SCC(=O)Nc2cc(-c3c[nH]c4ccccc34)n[nH]2)nnc1-c1ccccc1Br [Compound 11c]
3. O=C(CSc1nnc(-c2cc(Cl)cc(Cl)c2)s1)Nc1cc(-c2c[nH]c3ccccc23)n[nH]1 [Compound 10a]
4. Nn1c(SCC(=O)Nc2cc(-c3c[nH]c4ccccc34)n[nH]2)nnc1-c1cccnc1 [Compound 11h]
5. Nn1c(SCC(=O)Nc2cc(-c3c[nH]c4ccccc34)n[nH]2)nnc1-c1ccccn1 [Compound 11i]
6. Nn1c(SCC(=O)Nc2cc(-c3c[nH]c4ccccc34)n[nH]2)nnc1-c1ccncc1 [Compound 11o]
7. Nn1c(SCC(=O)Nc2cc(-c3c[nH]c4ccccc34)n[nH]2)nnc1-c1ccc[nH]1 [Compound 11r]

1. 1.06
2. 1.88
3. 0.12
4. 0.25
5. 0.16
6. 1.34
7. 0.18
